- EXPERIMENTAL SYSTEM: UniProt:P28223
- Sequence (P28223 whole entry): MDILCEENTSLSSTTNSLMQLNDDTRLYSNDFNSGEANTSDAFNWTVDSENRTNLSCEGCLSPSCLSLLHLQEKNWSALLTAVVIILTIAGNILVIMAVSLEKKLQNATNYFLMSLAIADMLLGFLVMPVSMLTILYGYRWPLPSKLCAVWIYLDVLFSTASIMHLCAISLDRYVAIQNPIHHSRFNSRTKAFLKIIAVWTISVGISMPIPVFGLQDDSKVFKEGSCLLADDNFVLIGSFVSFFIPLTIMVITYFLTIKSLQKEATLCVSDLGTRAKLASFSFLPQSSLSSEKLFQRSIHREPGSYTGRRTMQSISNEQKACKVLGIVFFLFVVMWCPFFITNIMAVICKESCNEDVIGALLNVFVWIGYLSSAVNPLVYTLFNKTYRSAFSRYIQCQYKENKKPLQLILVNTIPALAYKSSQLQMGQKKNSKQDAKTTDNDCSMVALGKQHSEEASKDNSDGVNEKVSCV
EXPERIMENTAL ENDPOINT: log10(Ki) (log10 of the value in nM)
Response schema: value (number) is log10 of Ki in units of nM.

Consider the reported log10(Ki) for these molecules:
>>> print(df.to_string())
                        smiles_string  experimental_endpoint  reported
0       C[C@@H]1CNC[C@H]2Cc3ccccc3N21              log10(Ki)      0.28
1  C[C@@H]1CNC[C@H]2Cc3ccc(C#N)cc3N21              log10(Ki)      2.04

So for `Cc1c(Cl)ccc2c1N1CCNC[C@@H]1C2` , the logged log10(Ki) turned out to be 1.72

So for `Cc1c(Cl)ccc2c1N1CCNC[C@H]1C2` , the logged log10(Ki) turned out to be 0.79

So for `Cc1c(Cl)ccc2c1N1[C@H](CNC[C@H]1C)C2` , the logged log10(Ki) turned out to be 1.60

* * *

Test system 5-hydroxytryptamine receptor 2B (Homo sapiens, UniProt P41595), log10 Ki listed for each of the molecules.
Response schema: value (number) is log10 of Ki in units of nM.

Consider the reported log10 Ki for these molecules:
>>> df
                                   molecule                       experimental_system  reported
0  Clc1ccc2c(c1)N1CCNCC1C2 (stereo not given)  5-hydroxytryptamine receptor 2B (Homo sapiens, UniProt P41595)      1.72
1             C[C@@H]1CNC[C@H]2Cc3ccccc3N21  5-hydroxytryptamine receptor 2B (Homo sapiens, UniProt P41595)      1.18

Summary: `C[C@@H]1CNC[C@H]2Cc3ccc(C(F)(F)F)cc3N21` , 5-hydroxytryptamine receptor 2B (Homo sapiens, UniProt P41595), log10 Ki = 1.04

Summary: `C[C@H]1CNC[C@@H]2Cc3ccccc3N21` , 5-hydroxytryptamine receptor 2B (Homo sapiens, UniProt P41595), log10 Ki = 3.41

Summary: `Cc1c(Cl)ccc2c1N1CCNC[C@H]1C2` , 5-hydroxytryptamine receptor 2B (Homo sapiens, UniProt P41595), log10 Ki = 1.00

* * *

- EXPERIMENTAL SYSTEM: 5-hydroxytryptamine receptor 2C (Homo sapiens)
- Sequence (whole entry): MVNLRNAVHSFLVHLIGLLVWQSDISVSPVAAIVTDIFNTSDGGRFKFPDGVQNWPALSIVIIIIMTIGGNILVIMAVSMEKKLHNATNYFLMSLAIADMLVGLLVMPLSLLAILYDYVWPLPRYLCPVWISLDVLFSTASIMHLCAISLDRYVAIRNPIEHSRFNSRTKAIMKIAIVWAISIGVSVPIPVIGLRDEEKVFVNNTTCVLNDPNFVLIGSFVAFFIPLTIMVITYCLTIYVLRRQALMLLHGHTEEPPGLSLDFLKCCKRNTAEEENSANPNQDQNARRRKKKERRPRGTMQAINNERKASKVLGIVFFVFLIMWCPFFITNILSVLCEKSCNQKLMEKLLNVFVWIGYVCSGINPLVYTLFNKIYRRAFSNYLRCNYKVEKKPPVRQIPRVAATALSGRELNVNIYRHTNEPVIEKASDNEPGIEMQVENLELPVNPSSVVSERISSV
- ASSAY REMARKS: Relative efficacy toward 5-HT2C receptor
EXPERIMENTAL ENDPOINT: Efficacy
// return the numeric value with its unit appended

>>> df
                                   compound  experimental_endpoint  reported
0        Cc1ccc2c(c1C)N1[C@H](CNC[C@H]1C)C2               Efficacy       91%
1             Cc1c(Cl)ccc2c1N1CCNC[C@@H]1C2               Efficacy       80%
2        Cc1ccc2c(c1)N1[C@@H](CNC[C@H]1C)C2               Efficacy      100%
3             C[C@@H]1CNC[C@H]2Cc3ccccc3N21               Efficacy       97%
4  Clc1ccc2c(c1)N1CCNCC1C2 (configuration not stated)               Efficacy       99%

So for `Cc1c(Cl)ccc2c1N1[C@@H](CNC[C@H]1C)C2` , the logged Efficacy turned out to be 98%

So for `C[C@@H]1CNC[C@H]2Cc3ccc(CO)cc3N21` , the logged Efficacy turned out to be 97%

So for `C[C@@H]1CNC[C@H]2Cc3ccc(C#N)cc3N21` , the logged Efficacy turned out to be 77%

So for `Cc1c(Cl)ccc2c1N1[C@H](CNC[C@H]1C)C2` , the logged Efficacy turned out to be 97%

So for `Cc1c(Cl)ccc2c1N1CCNC[C@H]1C2` , the logged Efficacy turned out to be 90%
